- ASSAYED SYSTEM: T1, Pfs230 D1 (aa 587–731) (Plasmodium falciparum, UniProt P68874 587-731)
- T1 chain: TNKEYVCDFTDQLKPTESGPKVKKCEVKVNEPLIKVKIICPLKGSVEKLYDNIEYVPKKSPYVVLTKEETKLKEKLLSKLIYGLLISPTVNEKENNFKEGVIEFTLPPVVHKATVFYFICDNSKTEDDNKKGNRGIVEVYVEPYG
- MEASUREMENT NOTES: BLI; representative curve
VALUE TYPE: Kd

Incoming: Look up Kd: nanobody E1 (VHH) VHH: QVQLQESGGGLVQPGGSLRLSCAASGRTFSSYFMGWFRQAPGKGRVFVASISWSGGSTYYADSVKGRFTISRDNAENTVYLQMNSLKPEDTAVYYCAAGTRATPLDWASGMDYWGKGTQVTVSS
Outgoing: 0.43 nM

Incoming: So what does the record say about Kd for nanobody F5 (VHH) VHH: QVQLQESGGGLVQPGGSLRLSCAASGFTLDRYAIGWFRQAPGKEREGVSCISSSDGSTYYADSVKGRFTISRDNAKNTVYLQMNSLKPEDTAVYYCARDHGPCTVLADILYDYGMDYWGKGTQVTVSS ?
Outgoing: 1.01 nM

Incoming: If you can, please state the reported Kd value of nanobody A10 (VHH) VHH: QVQLQESGGGLVQAGSSLRLSCAASGGTFSNYAMGWFRQAPGKEREFVAAIGWSGGTYYTDSVEGRFTISRDNAKNTVYLQMNSLKPEDTAVYYCAAKRSGSSWSERGYDYWGQGTQVTVSS .
Outgoing: 4.56 nM

Incoming: Value lookup for Kd; key = nanobody G5 (VHH) VHH: QVQLQESGGGLVQAGGSLRLSCAASGRTFNDYAMYWFRQAPGKEREFVADITWSGSSTYYADSVKGRFTISRDNAKNTVFLQMNSLKPEDTALYYCAADSRYYGIGIGTPRYWGQGTQVTVSS
Outgoing: 3.25 nM
